molecular target: Steroid 17-alpha-hydroxylase/17,20 lyase (Homo sapiens); test: Inhibition of human Cytochrome P450 17
Measurement type: IC50 (nM)
Numbers only, in nM.

[ask] What value of IC50 has been reported for the following molecule? CC12CCC(O)CC1=CCC1C2CCC2(C)C(c3c[nH]cn3)=CCC12 (stereo unspecified)
[reply] 40

====

Molecular target: 3-oxo-5-alpha-steroid 4-dehydrogenase 2 (Homo sapiens, UniProt P31213)
Sequence (P31213 whole entry): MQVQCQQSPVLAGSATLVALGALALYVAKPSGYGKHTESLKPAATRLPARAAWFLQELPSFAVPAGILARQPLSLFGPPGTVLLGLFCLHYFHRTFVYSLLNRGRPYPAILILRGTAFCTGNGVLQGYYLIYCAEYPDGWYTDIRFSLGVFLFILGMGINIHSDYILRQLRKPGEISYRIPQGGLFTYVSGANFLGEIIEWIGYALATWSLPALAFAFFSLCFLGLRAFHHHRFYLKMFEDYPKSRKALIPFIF
Experiment: Evaluated for the inhibitory activity against human steroid 5-alpha-reductase type 2 from human BPH tissue at 210 nM of testosterone
Measurement type: IC50 (µM)
Give bare numbers, in µM.

Some solved entries appear below for comparison.
[ask] What value of IC50 has been reported for the following molecule? C/C(CC1CCC2C3CCC4=CC(=O)CCC4(C)C3CCC12C)=N\O (stereo unspecified)
[reply] 0.47

[ask] Request: C/C(CC1CCC2C3CC(=O)C4=CC(=O)CCC4(C)C3CCC12C)=N\O (stereo unspecified)
[reply] 0.43

I'm hoping you can list IC50 for every molecule here, please.
1. CC12CCC(=O)C=C1CCC1C2CCC2(C)C(C/C=N/O)CCC12 (stereo unspecified)
2. C[C@]12CC[C@H](O)C=C1CC[C@H]1C3CC/C(=C/C=N\O)[C@@]3(C)CC[C@@H]12 (stereo partly specified)

[reply]
1. 0.3
2. 0.43

[ask] What value of IC50 has been reported for the following molecule? C/C(=N/O)[C@H]1CCC2C3CC(=O)C4=CC(=O)CCC4(C)C3CCC21C (stereo partly specified)
[reply] 3.2

====

Biological target: Steroid 17-alpha-hydroxylase/17,20 lyase (Homo sapiens)
Sequence (P05093 whole entry): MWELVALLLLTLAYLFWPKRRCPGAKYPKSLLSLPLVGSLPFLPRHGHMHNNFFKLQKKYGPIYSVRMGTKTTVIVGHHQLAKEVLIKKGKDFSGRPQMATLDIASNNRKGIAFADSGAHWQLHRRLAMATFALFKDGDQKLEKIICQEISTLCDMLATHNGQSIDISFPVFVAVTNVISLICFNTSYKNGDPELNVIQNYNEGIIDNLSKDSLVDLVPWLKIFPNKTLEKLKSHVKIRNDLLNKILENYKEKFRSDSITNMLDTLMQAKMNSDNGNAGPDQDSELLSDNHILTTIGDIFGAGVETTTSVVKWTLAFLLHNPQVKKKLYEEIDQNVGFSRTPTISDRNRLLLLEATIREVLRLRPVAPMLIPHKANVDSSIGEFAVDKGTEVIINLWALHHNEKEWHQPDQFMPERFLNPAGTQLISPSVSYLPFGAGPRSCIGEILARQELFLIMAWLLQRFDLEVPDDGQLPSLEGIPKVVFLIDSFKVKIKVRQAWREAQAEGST
Experiment: Evaluated for the inhibitory activity towards Cytochrome P450 17 human enzyme using testicular microsome at 25 uM of substrate (progesterone)
Set-up: species or system Testis
Kindly state pIC50 for each of the entries shown.
Give bare numbers, as −log10 of the molar value.

Some solved entries appear below for comparison.
[ask] What value of pIC50 has been reported for the following compound? C[C@]12CC[C@H](O)C=C1CC[C@H]1C3CC/C(=C/C=N\O)[C@@]3(C)CC[C@@H]12 (stereo partly drawn)
[reply] 6.74

[ask] Request: C/C(=N/O)C1=CCC2C3CCC4=CC(=O)CCC4(C)C3CCC12C (stereo not drawn)
[reply] 7.00

[ask] Request: C/C(CC1CCC2C3CC=C4CC(O)CCC4(C)C3CCC12C)=N\O (stereo not drawn)
[reply] 5.93

[ask] Request: C/C(=N/O)[C@H]1CC=C2[C@@H]3CC=C4C[C@@H](O)CC[C@]4(C)[C@H]3CC[C@@]21C
[reply] 6.70

[ask] Request: C/C(=N/O)C1=CC=C2C3CCC4=CC(=O)CCC4(C)C3CCC12C (stereo not drawn)
[reply] 6.70

I'm hoping you can list pIC50 for every compound here, please.
1. C[C@]12CC[C@H](O)CC1=CC[C@H]1C3CC/C(=C/C=N\O)[C@@]3(C)CC[C@@H]12 (stereo partly drawn)
2. C/C(=N/O)C1=CCC2[C@@H]3CC=C4C[C@@H](O)CC[C@]4(C)[C@H]3CC[C@]12C (stereo partly drawn)
3. CC12CCC(O)CC1=CCC1C2CCC2(C)C(C/C=N/O)CCC12 (stereo not drawn)

[reply]
[7.11, 6.77, 6.57]

====

target: 3-oxo-5-alpha-steroid 4-dehydrogenase 2 (Homo sapiens, UniProt P31213); experiment: Inhibition of Human steroid 5-alpha-reductase type II expressed in HEK293 cells; type: cell-based
Measurement type: IC50 (µM)
Give bare numbers, in µM.

Some solved entries appear below for comparison.
[ask] What value of IC50 has been reported for the following compound? CC(C)(C)NC(=O)[C@H]1CC[C@H]2[C@@H]3CC[C@H]4NC(=O)C=C[C@]4(C)[C@H]3CC[C@]12C [FINASTERIDE]
[reply] 0.06

[ask] Request: CC12CCC(=O)C=C1CCC1C2CCC2(C)C(C/C=N/O)CCC12 (stereo not drawn)
[reply] 0.89

Turning to the following compound.
[ask] What value of IC50 has been reported for the following compound? C/C(CC1CCC2C3CC(=O)C4=CC(=O)CCC4(C)C3CCC12C)=N\O (stereo not drawn)
[reply] 0.86

====

molecular target: 3-oxo-5-alpha-steroid 4-dehydrogenase 1 (Homo sapiens, UniProt P18405); test: Evaluated for the inhibitory activity against human steroid 5-alpha-reductase type I in human DU-145 cell assay at 5 nM of androstenedione; type: cell-based
Measurement type: IC50

Some solved entries appear below for comparison.
[ask] What value of IC50 has been reported for the following compound? CC(C)(C)NC(=O)[C@H]1CC[C@H]2[C@@H]3CC[C@H]4NC(=O)C=C[C@]4(C)[C@H]3CC[C@]12C [FINASTERIDE]
[reply] 40 nM

[ask] Request: C/C(=N/O)C1=CCC2C3CCC4=CC(=O)CCC4(C)C3CCC12C (stereo not drawn)
[reply] > 10000 nM

[ask] Request: C/C(=N/O)[C@H]1CCC2C3CC(=O)C4=CC(=O)CCC4(C)C3CCC21C (stereo partly drawn)
[reply] > 10000 nM

[ask] Request: C/C(=N/O)C1=CC=C2C3CCC4=CC(=O)CCC4(C)C3CCC12C (stereo not drawn)
[reply] > 10000 nM

[ask] Request: C/C(=N/O)[C@H]1CCC2C3CCC4=CC(=O)CCC4(C)C3CCC21C (stereo partly drawn)
[reply] 1630 nM

I'm hoping you can list IC50 for every compound here, please.
1. C/C(CC1CCC2C3CC(=O)C4=CC(=O)CCC4(C)C3CCC12C)=N\O (stereo not drawn)
2. CC12CCC(=O)C=C1CCC1C2CCC2(C)C(C/C=N/O)CCC12 (stereo not drawn)
3. C/C(CC1CCC2C3CCC4=CC(=O)CCC4(C)C3CCC12C)=N\O (stereo not drawn)

[reply]
["900 nM", "1950 nM", "900 nM"]

====

Target: 3-oxo-5-alpha-steroid 4-dehydrogenase 1 (Homo sapiens, UniProt P18405)
Sequence (P18405 whole entry): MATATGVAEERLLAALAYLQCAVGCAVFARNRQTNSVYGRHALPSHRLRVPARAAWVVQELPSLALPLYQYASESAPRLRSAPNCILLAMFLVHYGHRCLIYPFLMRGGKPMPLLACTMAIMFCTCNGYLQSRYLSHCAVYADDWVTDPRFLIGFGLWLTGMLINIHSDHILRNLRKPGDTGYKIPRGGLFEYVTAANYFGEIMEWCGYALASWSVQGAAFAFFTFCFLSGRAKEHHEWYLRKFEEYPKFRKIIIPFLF
Experiment: Inhibition of Human steroid 5-alpha-reductase type I expressed in HEK293 cells
Format: cell-based
Measurement type: pIC50
Numbers only, as −log10 of the molar value.

[ask] What value of pIC50 has been reported for the following compound? C/C(=N/O)[C@H]1CCC2C3CCC4=CC(=O)CCC4(C)C3CCC21C (some centres undefined)
[reply] 5.75

[ask] Request: C/C(CC1CCC2C3CC(=O)C4=CC(=O)CCC4(C)C3CCC12C)=N\O (centres undefined)
[reply] 5.54

[ask] Request: CC(C)(C)NC(=O)[C@H]1CC[C@H]2[C@@H]3CC[C@H]4NC(=O)C=C[C@]4(C)[C@H]3CC[C@]12C [FINASTERIDE]
[reply] 6.27

Others:
[ask] What value of pIC50 has been reported for the following compound? CC12CCC(=O)C=C1CCC1C2CCC2(C)C(C/C=N/O)CCC12 (centres undefined)
[reply] 5.61
